Data credit: patent US20250108023A1

# measured-on: sodium ion channel of Trpm5 bitter receptor (Mus musculus)
# Construct: Put the removed tongue in a 2 ml EP tube, add 1-1.5 ml of 0.25% trypsin solution; from tissue; host or cells: cells dissociated with trypsin from mouse tongue
# Sequence (Q9JJH7 1-1158): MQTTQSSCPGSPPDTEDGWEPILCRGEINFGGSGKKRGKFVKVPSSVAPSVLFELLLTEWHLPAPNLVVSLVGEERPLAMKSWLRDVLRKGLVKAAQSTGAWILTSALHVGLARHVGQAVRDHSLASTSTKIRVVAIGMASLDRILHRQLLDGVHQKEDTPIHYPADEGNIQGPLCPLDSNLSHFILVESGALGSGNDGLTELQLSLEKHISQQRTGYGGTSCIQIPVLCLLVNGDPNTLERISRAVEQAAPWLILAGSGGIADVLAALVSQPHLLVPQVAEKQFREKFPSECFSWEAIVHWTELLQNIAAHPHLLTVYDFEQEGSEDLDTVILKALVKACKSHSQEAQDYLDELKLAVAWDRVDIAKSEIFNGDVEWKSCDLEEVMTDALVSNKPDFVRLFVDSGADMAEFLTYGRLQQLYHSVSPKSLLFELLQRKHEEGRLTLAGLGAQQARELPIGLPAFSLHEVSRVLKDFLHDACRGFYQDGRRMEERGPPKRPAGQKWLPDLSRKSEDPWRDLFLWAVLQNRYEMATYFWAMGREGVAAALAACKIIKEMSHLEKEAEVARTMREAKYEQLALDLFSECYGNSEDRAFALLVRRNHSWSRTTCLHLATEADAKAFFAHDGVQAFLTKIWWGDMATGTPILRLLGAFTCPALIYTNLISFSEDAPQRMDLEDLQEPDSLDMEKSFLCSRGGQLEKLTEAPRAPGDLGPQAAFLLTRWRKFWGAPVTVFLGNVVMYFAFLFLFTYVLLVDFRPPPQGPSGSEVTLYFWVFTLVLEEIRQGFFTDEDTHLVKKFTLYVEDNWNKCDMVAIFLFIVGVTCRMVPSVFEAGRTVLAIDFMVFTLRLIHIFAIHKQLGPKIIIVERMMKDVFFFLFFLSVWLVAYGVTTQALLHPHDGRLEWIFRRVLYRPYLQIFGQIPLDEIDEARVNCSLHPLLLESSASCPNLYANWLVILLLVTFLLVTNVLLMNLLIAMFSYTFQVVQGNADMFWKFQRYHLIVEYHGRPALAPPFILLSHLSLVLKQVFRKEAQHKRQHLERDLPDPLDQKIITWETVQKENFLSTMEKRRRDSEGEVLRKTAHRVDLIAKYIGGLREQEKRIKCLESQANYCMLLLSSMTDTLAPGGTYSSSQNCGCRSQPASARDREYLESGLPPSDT
# assay-remarks: Immunofluorescence experiment of sodium ion channels in mouse tongue cells stimulated with bitter agent
# Type: cell-based, mice
# condition: Bitterant 180 s (2% metronidazole solution)
# Description: The mouse was killed by dislocation, and the tongue was removed (minimizing tongue bleeding), disinfected with alcohol for 2 minutes (adding sodium citrate for anticoagulation), and washed with D-Hanks solution or rinsed with 10 ml of saline solution drawn by a syringe. […] (4) Take 10 ul of incubation solution and drop it into the center of the cell counting plate, cover it with a slide, and observe it under a fluorescence microscope. […]
I'd appreciate it if you could label each record using average value of fluorescence brightness, base number removed and these ranges: 1: < -0.6; 2: ≥ -0.6 and < -0.3; 3: ≥ -0.3

Dear colleague, I would appreciate it if you could identify the bin for CC(C)=CCCC(C)=CC=O [Citral, citral] and reply at your convenience.
1

Categorize the following entry: C=CCc1ccc(OC(C)=O)c(OC)c1 [Eugenol acetate]
1

Quick check: band for O=P(c1ccccc1)(c1ccccc1)c1ccccc1 [Triphenylphosphine oxide, reference compound]
1

Which class does COc1cc(C(=O)O)ccc1O [Vanillic acid, 3-methoxy-4-hydroxybenzoic acid] fall in?
3

Into which bin does this compound go? CCCCC[C@H](O)CC(=O)CCc1ccc(O)c(OC)c1 [Gingerol, 6-gingerol]
3

Note: place this compound into its band. Item: C=CC(C)(O)CCC=C(C)C (stereo not shown) [Linalool, linalool]
2

// bin(item) where item = CC1CCC(C(C)C)C(OC(=O)C(C)O)C1 (stereo not shown) [Menthyl lactate]
2
